# target: UniProt P22607
# Sequence (P22607 23-806): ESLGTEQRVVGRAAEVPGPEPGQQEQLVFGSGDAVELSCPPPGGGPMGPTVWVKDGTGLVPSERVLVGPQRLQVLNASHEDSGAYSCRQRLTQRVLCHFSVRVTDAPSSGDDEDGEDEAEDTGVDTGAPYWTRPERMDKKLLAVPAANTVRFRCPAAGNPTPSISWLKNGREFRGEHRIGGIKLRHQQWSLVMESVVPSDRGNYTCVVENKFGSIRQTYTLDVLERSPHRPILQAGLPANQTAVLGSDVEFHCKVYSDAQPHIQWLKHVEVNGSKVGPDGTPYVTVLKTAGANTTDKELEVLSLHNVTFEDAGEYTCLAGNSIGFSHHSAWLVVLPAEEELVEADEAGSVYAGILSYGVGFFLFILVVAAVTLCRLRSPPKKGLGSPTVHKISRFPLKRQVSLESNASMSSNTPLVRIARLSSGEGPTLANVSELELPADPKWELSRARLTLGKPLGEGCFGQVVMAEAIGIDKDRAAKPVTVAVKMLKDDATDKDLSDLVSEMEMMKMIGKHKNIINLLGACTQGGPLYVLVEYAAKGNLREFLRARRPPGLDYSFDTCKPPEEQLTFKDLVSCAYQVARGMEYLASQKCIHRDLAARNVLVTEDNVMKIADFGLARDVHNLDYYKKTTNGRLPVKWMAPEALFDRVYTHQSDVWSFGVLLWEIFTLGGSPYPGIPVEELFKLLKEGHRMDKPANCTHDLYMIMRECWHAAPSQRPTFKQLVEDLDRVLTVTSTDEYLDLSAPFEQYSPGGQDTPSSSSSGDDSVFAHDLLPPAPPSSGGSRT
# protocol.text: FGFR Enzymatic Assay (FRET peptide phosphorylation), FGFR3
# Format: biochemical
# assay.conditions: FGFR3 selectivity; pre-incubated for 4 hours
Here the recorded FGFR4/FGFR3 IC50 ratio is given for each entry.

See these solved cases before continuing.
{"columns": ["molecule", "FGFR4/FGFR3 IC50 ratio"],
 "data": [
  ["CCn1cc(N2C(=O)N(c3c(F)c(OC)cc(OC)c3F)Cc3cnc(-c4cn(C)nc4C)cc32)cn1 [Example 131]", ">10"],
  ["CCn1cnc(-c2cc3c(cn2)CN(c2c(F)c(OC)cc(OC)c2F)C(=O)C32CC2)c1 [Example 53]", ">5"],
  ["COc1cc(OC)c(F)c(N2Cc3cnc(-c4cn(C)nc4C)cc3N(c3ccc4cn[nH]c4c3)C2=O)c1F [Example 133]", ">5"]
]}

Ask: Look up FGFR4/FGFR3 IC50 ratio: COc1cc(OC)c(F)c(N2Cc3cnc(-c4cnn(C5(CC#N)CN(C(C)=O)C5)c4)cc3C3(CC3)C2=O)c1F [Example 56]
Reply: >1

Ask: Look up FGFR4/FGFR3 IC50 ratio: CCN1C(=O)N(c2c(F)c(OC)cc(OC)c2F)Cc2cnc(-c3ccc(C(=O)NC4CC4)nc3)cc21 [Example 176]
Reply: >5

Ask: Look up FGFR4/FGFR3 IC50 ratio: COc1cc(OC)c(F)c(N2Cc3cnc(-c4cn(CCC5CCNCC5)nc4C)cc3C3(CC3)C2=O)c1F [Example 165]
Reply: >3

Ask: Look up FGFR4/FGFR3 IC50 ratio: COc1cc(OC)c(F)c(N2Cc3cnc(-c4cn(CC(=O)N5CCOCC5)nc4C)cc3C3(CC3)C2=O)c1F [Example 159]
Reply: >3

----------
# target: FGFR2 (Homo sapiens (Human))
# protocol.text: FGFR Enzymatic Assay (FRET peptide phosphorylation), FGFR2
# Type: biochemical
# assay.conditions: pre-incubated for 4 hours
pIC50: −log10 of the molar value.
endpoint.label: pIC50

See these solved cases before continuing.
{"columns": ["molecule", "pIC50"],
 "data": [
  ["COc1cc(OC)c(F)c(N2Cc3cnc(-c4cc(N)cnc4C)cc3C3(CC3)C2=O)c1F", "< 6.70"],
  ["COc1cc(OC)c(F)c(N2Cc3cnc(-c4cn(C)nc4C)cc3N(c3ccc(F)c(F)c3)C2=O)c1F", "7.52 to 8.00"],
  ["COc1cc(OC)c(F)c(N2Cc3cnc(-c4cn(C)nc4C)cc3N(c3ccc(CC#N)cc3)C2=O)c1F", "> 8.00"]
]}

Ask: Look up pIC50: COc1cc(OC)c(F)c(N2Cc3cnc(-c4cnn(C5(C#N)CCC5)c4C)cc3C3(CC3)C2=O)c1F
Reply: > 8.00

Ask: Look up pIC50: COc1cc(OC)c(F)c(N2Cc3cnc(-c4cncc(Cl)c4)cc3C3(CC3)C2=O)c1F
Reply: < 6.70

Ask: Look up pIC50: COc1cc(OC)c(F)c(N2Cc3cnc(-c4cn(C5CCN(CC#N)C5)nc4C)cc3C3(CC3)C2=O)c1F (stereo not shown)
Reply: 7.52 to 8.00

Ask: Look up pIC50: COc1cc(OC)c(F)c(N2Cc3cnc(-c4cn(C)nc4C)cc3N(c3ccc(F)c(C#N)c3)C2=O)c1F
Reply: 6.70 to 7.52

----------
# target: FGFR4 (Homo sapiens (Human), UniProt P22455)
# Sequence (P22455 22-802): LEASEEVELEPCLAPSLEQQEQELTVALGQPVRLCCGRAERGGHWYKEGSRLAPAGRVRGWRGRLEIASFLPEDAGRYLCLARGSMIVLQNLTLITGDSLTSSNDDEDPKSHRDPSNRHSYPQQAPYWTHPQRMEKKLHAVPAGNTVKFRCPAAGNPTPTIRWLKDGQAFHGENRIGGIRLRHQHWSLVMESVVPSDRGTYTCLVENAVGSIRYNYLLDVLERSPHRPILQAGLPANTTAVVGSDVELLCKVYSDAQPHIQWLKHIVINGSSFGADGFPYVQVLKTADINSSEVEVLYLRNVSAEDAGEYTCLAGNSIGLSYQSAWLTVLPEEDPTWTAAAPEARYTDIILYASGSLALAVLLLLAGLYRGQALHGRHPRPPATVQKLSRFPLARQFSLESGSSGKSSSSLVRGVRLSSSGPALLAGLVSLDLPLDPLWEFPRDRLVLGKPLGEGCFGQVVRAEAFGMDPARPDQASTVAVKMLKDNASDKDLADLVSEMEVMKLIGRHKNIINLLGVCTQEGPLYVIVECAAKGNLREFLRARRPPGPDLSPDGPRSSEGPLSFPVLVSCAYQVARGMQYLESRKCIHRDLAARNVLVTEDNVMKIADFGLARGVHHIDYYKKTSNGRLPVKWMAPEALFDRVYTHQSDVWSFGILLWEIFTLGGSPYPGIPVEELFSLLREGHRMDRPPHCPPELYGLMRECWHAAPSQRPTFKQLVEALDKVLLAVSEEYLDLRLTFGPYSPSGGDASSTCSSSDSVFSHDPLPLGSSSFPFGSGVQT
# protocol.text: FGFR Enzymatic Assay (FRET peptide phosphorylation), FGFR4
# Type: biochemical
# assay.conditions: FGFR4 selectivity; pre-incubated for 4 hours
endpoint.label: FGFR3/FGFR4 IC50 ratio

See these solved cases before continuing.
{"columns": ["smiles.str", "FGFR3/FGFR4 IC50 ratio"],
 "data": [
  ["COc1cc(OC)c(F)c(N2Cc3cnc(-c4[nH]ncc4C#N)cc3C3(CC3)C2=O)c1F", ">10"],
  ["COc1cc(OC)c(F)c(N2Cc3cnc(-c4nn(CC5CCOCC5)cc4C#N)cc3C3(CC3)C2=O)c1F", ">50"],
  ["COc1cc(OC)c(F)c(N2Cc3cnc(-c4cncc(S(=O)(=O)N5CCOCC5)c4)cc3C3(CC3)C2=O)c1F", ">1"]
]}

Continue with the compound presented below.
Ask: Look up FGFR3/FGFR4 IC50 ratio: COc1cc(OC)c(F)c(N2Cc3cnc(-c4cncc(Cl)c4)cc3C3(CC3)C2=O)c1F
Reply: >10

----------
# target: UniProt P21802
# protocol.text: FGFR Enzymatic Assay (FRET peptide phosphorylation), FGFR2
# Format: biochemical
# assay.conditions: pre-incubated for 4 hours
# Protocol: The inhibitor potency of the exemplified compounds was measured in an enzyme assay that measures peptide phosphorylation using FRET measurements to detect product formation. Inhibitors were serially diluted in DMSO and a volume of 0.5 μL was transferred to the wells of a 384-well plate. The enzymes were purchased from Millipore or Invitrogen. GraphPad prism3 was used to analyze the data.
Here the recorded IC50 is given for each entry.

Ask: Look up IC50: COc1cc(OC)c(F)c(N2Cc3cnc(-c4cn(CC(=O)N5CCOCC5)nc4C)cc3C3(CC3)C2=O)c1F
Reply: 10 to 30 nM

Ask: Look up IC50: COc1cc(OC)c(F)c(N2Cc3cnc(-c4cn(C)nc4C)cc3N(c3cccc(F)c3)C2=O)c1F
Reply: < 10 nM

Ask: Look up IC50: COc1cc(OC)c(F)c(N2Cc3cnc(-c4nn(CC5CCOCC5)cc4C#N)cc3C3(CC3)C2=O)c1F
Reply: > 200 nM

Ask: Look up IC50: COc1cc(OC)c(F)c(N2Cc3cnc(-c4cn(C)nc4C)cc3N(c3ccncn3)C2=O)c1F
Reply: 10 to 30 nM

Ask: Look up IC50: CCn1cnc(-c2cc3c(cn2)CN(c2c(F)c(OC)cc(OC)c2F)C(=O)C32CC2)c1
Reply: < 10 nM

Ask: Look up IC50: COc1cc(OC)c(F)c(N2Cc3cnc(-c4cn(CCN(C)C)nc4C)cc3C3(CC3)C2=O)c1F
Reply: 10 to 30 nM

Ask: Look up IC50: COc1cc(OC)c(F)c(N2Cc3cnc(-c4cn(C)nc4C)cc3N(c3ccc4ncsc4c3)C2=O)c1F
Reply: 10 to 30 nM

----------
Here the recorded IC50 is given for each entry.
# target: FGFR4 (Homo sapiens (Human))
# protocol.text: FGFR Enzymatic Assay (FRET peptide phosphorylation), FGFR4
# Format: biochemical
# assay.conditions: pre-incubated for 5 to 10 minutes

{"columns": ["compound", "target", "IC50"],
 "data": [
  ["COc1cc(OC)c(F)c(N2Cc3cnc(-c4ccc(C5(C#N)CCC5)nc4)cc3N(c3cccnc3)C2=O)c1F [Example 138]", "FGFR4 (Homo sapiens (Human))", "30 to 200 nM"],
  ["COc1cc(OC)c(F)c(N2Cc3cnc(-c4cn(C)nc4C)cc3N(Cc3cnn(CC4CC4)c3)C2=O)c1F [Example 126]", "FGFR4 (Homo sapiens (Human))", "30 to 200 nM"],
  ["COc1cc(OC)c(F)c(N2Cc3cnc(-c4ccc(C5(C#N)CCC5)nc4)cc3N(Cc3nnc(C)o3)C2=O)c1F [Example 187]", "FGFR4 (Homo sapiens (Human))", "30 to 200 nM"]
]}

Ask: Look up IC50: COc1cc(OC)c(F)c(N2Cc3cnc(-c4cncc(S(=O)(=O)N5CCOCC5)c4)cc3C3(CC3)C2=O)c1F [Example 14]
Reply: < 10 nM

----------
# target: FGFR2 (Homo sapiens (Human), UniProt P21802)
# Sequence (P21802 22-821): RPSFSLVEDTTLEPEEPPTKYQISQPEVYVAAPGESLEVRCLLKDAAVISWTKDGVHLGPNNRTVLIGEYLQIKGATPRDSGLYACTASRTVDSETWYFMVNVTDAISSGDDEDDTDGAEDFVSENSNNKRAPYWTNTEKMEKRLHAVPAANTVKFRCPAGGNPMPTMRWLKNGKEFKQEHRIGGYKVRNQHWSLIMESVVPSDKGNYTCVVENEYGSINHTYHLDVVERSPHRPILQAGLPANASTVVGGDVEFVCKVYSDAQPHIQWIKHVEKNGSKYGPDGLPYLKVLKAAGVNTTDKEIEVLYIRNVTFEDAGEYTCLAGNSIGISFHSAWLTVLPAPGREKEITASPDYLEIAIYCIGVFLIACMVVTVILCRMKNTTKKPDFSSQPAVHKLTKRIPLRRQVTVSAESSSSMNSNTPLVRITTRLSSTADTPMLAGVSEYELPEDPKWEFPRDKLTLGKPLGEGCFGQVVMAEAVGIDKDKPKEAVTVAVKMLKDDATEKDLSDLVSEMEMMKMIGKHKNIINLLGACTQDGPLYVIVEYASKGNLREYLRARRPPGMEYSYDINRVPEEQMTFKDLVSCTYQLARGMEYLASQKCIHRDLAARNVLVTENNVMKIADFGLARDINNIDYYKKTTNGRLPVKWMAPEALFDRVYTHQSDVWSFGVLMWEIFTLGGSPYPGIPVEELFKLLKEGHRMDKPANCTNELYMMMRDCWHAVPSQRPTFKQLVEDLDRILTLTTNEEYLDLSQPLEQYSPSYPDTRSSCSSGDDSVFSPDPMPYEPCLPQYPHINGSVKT
# protocol.text: FGFR Enzymatic Assay (FRET peptide phosphorylation), FGFR2
# Assay type: biochemical
# assay.conditions: pre-incubated for 4 hours
endpoint.label: IC50

See these solved cases before continuing.
{"columns": ["compound", "target", "endpoint.label", "observed.result"],
 "data": [
  ["COc1ccc(N2C(=O)N(c3c(F)c(OC)cc(OC)c3F)Cc3cnc(-c4cn(C)nc4C)cc32)cc1", "FGFR2 (Homo sapiens (Human), UniProt P21802)", "IC50", "< 10 nM"],
  ["COc1cc(OC)c(F)c(N2Cc3cnc(-c4cn(CCC#N)nc4C)cc3C3(CC3)C2=O)c1F", "FGFR2 (Homo sapiens (Human), UniProt P21802)", "IC50", "10 to 30 nM"],
  ["COc1cc(OC)c(F)c(N2Cc3cnc(-c4cn(C)nc4C)cc3N(c3cccnc3)C2=O)c1F", "FGFR2 (Homo sapiens (Human), UniProt P21802)", "IC50", "10 to 30 nM"],
  ["COc1cc(OC)c(F)c(N2Cc3cnc(-c4cnn(CC5CCCS(=O)(=O)N5)c4)cc3C3(CC3)C2=O)c1F (stereo not drawn)", "FGFR2 (Homo sapiens (Human), UniProt P21802)", "IC50", "< 10 nM"],
  ["COc1cc(OC)c(F)c(N2Cc3cnc(-c4cnn(CCN5CCOCC5)c4)cc3C3(CC3)C2=O)c1F", "FGFR2 (Homo sapiens (Human), UniProt P21802)", "IC50", "< 10 nM"],
  ["COc1cc(OC)c(F)c(N2Cc3cnc(-c4cn(C)nc4C)cc3N(CCc3cnn(C)c3)C2=O)c1F", "FGFR2 (Homo sapiens (Human), UniProt P21802)", "IC50", "10 to 30 nM"]
]}

Ask: Request body: readout IC50, system FGFR2 (Homo sapiens (Human), UniProt P21802), query COc1cc(OC)c(F)c(N2Cc3cnc(-c4cn(C)nc4C)cc3N(c3cc(F)cc(C#N)c3)C2=O)c1F . Return the value.
Reply: 10 to 30 nM

Ask: Request body: readout IC50, system FGFR2 (Homo sapiens (Human), UniProt P21802), query COc1cc(OC)c(F)c(N2Cc3cnc(-c4cn(C)nc4C)cc3N(Cc3ccc(F)cc3)C2=O)c1F . Return the value.
Reply: 10 to 30 nM

Ask: Request body: readout IC50, system FGFR2 (Homo sapiens (Human), UniProt P21802), query COc1cc(OC)c(F)c(N2Cc3cnc(-c4cncc(N5CCOCC5)c4)cc3C3(CC3)C2=O)c1F . Return the value.
Reply: > 200 nM

Ask: Request body: readout IC50, system FGFR2 (Homo sapiens (Human), UniProt P21802), query COc1cc(OC)c(F)c(N2Cc3cnc(-c4cn(C)nc4C)cc3N(c3ccc(C(=O)N(C)C)cc3)C2=O)c1F . Return the value.
Reply: < 10 nM

Ask: Request body: readout IC50, system FGFR2 (Homo sapiens (Human), UniProt P21802), query COc1cc(OC)c(F)c(N2Cc3cnc(-c4ccncc4)cc3C3(CC3)C2=O)c1F . Return the value.
Reply: < 10 nM

Ask: Request body: readout IC50, system FGFR2 (Homo sapiens (Human), UniProt P21802), query COc1cc(OC)c(F)c(N2Cc3cnc(-c4cn(CCC5CCNCC5)nc4C)cc3C3(CC3)C2=O)c1F . Return the value.
Reply: < 10 nM
